- Assay comment: Human HepG2 cell viability assay in 384 well format
- Format: toxicity, cell-based
- Parameters: dose 125 nL, time 70.5 hour; concentration not given beside the values
- Assay context: HepG2 cells, read-out: Inhibition
Exercise: for every item that follows, state its recorded cytotoxicity at 70.5 h.
Answer with the value and then the unit.

Compound	cytotoxicity at 70.5 h
O=C(NCCN1CCc2ccccc21)c1cc(-c2ccc(O)cc2)n[nH]1	46.5%

Take each entry in turn and give its cytotoxicity at 70.5 h.
1. Cn1cc(NC(=O)CCc2ccsc2)ccc1=O
2. CCc1ncnc2c1CCN(C(=O)c1ccccn1)CC2
3. Cc1cc(C)cc(CN2CCN(Cc3cccc(CCN)c3)CC2=O)c1
4. COCC(=O)NCC1Cn2nnc(-c3ccncc3)c2CO1 (configuration not stated)

1. -5.97%
2. -24.1%
3. -10.8%
4. -3.5%
